# test: in vivo
# condition_notes: female, NSG, mouse, plasma, iv, 0.5 mg/kg
*1 amine or outer side, *2 acyl side, *3 side chain or, on linkers, in order; H or OH if unused. Where a SMILES comes first, the peptide text is derived from it. Bridges are numbered along the chain shown (N, C = ends). Roman numbers before positions name the chains, in order. [ ]: non-standard residue; d: D form. Actinocin(9to1) = Cc1c2oc3c(C)ccc(C(=O)[*:1])c3nc-2c(C(=O)[*:2])c(N)c1=O; NMeV = CN[C@H](C(=O)O)C(C)C; Sar = CNCC(=O)O
measured_attribute: Vd
Write the numeric value and append its unit.

For record Cc1c2oc3c(C)ccc(C(=O)N[C@@H]4C(=O)N[C@H](C(C)C)C(=O)N5CCC[C@H]5C(=O)N(C)CC(=O)N(C)[C@@H](C(C)C)C(=O)O[C@@H]4C)c3nc-2c(C(=O)N[C@@H]2C(=O)N[C@H](C(C)C)C(=O)N3CCC[C@H]3C(=O)N(C)CC(=O)N(C)[C@@H](C(C)C)C(=O)O[C@@H]2C)c(N)c1=O [actinomycin D, Actinomycin D] (I: T[dV]P[Sar][NMeV] / II: T[dV]P[Sar][NMeV]; ester I:1-I:C, II:1-II:C; linker I:N-II:N via Actinocin(9to1)) the listed Vd is 1.1 L

---

# test: in vivo
# condition_notes: female, NSG, mouse, plasma, iv, 0.5 mg/kg
*1 amine or outer side, *2 acyl side, *3 side chain or, on linkers, in order; H or OH if unused. Where a SMILES comes first, the peptide text is derived from it. Bridges are numbered along the chain shown (N, C = ends). Roman numbers before positions name the chains, in order. [ ]: non-standard residue; d: D form. Actinocin(9to1) = Cc1c2oc3c(C)ccc(C(=O)[*:1])c3nc-2c(C(=O)[*:2])c(N)c1=O; NMeV = CN[C@H](C(=O)O)C(C)C; Sar = CNCC(=O)O
measured_attribute: Cmax (ng/mL)
Your answer is read as ng/mL, so omit the unit and give the number.

For record Cc1c2oc3c(C)ccc(C(=O)N[C@@H]4C(=O)N[C@H](C(C)C)C(=O)N5CCC[C@H]5C(=O)N(C)CC(=O)N(C)[C@@H](C(C)C)C(=O)O[C@@H]4C)c3nc-2c(C(=O)N[C@@H]2C(=O)N[C@H](C(C)C)C(=O)N3CCC[C@H]3C(=O)N(C)CC(=O)N(C)[C@@H](C(C)C)C(=O)O[C@@H]2C)c(N)c1=O [actinomycin D, Actinomycin D] (I: T[dV]P[Sar][NMeV] / II: T[dV]P[Sar][NMeV]; ester I:1-I:C, II:1-II:C; linker I:N-II:N via Actinocin(9to1)) the listed Cmax is 15.8

---

*1 amine or outer side, *2 acyl side, *3 side chain or, on linkers, in order; H or OH if unused. Where a SMILES comes first, the peptide text is derived from it. Bridges are numbered along the chain shown (N, C = ends). Roman numbers before positions name the chains, in order. [ ]: non-standard residue; d: D form. Actinocin(9to1) = Cc1c2oc3c(C)ccc(C(=O)[*:1])c3nc-2c(C(=O)[*:2])c(N)c1=O; NMeV = CN[C@H](C(=O)O)C(C)C; Sar = CNCC(=O)O
measured_attribute: IC50

For record Cc1c2oc3c(C)ccc(C(=O)N[C@@H]4C(=O)N[C@H](C(C)C)C(=O)N5CCC[C@H]5C(=O)N(C)CC(=O)N(C)[C@@H](C(C)C)C(=O)O[C@@H]4C)c3nc-2c(C(=O)N[C@@H]2C(=O)N[C@H](C(C)C)C(=O)N3CCC[C@H]3C(=O)N(C)CC(=O)N(C)[C@@H](C(C)C)C(=O)O[C@@H]2C)c(N)c1=O [actinomycin D, Actinomycin D] (I: T[dV]P[Sar][NMeV] / II: T[dV]P[Sar][NMeV]; ester I:1-I:C, II:1-II:C; linker I:N-II:N via Actinocin(9to1)) the listed IC50 is 2400 nM

---

# test: in vivo
# condition_notes: female, NSG (NOD.Cg-Prkdc^scid Il2rg^tm1Wjl/SzJ), mouse, plasma, iv, 0.5 mg/kg, plasma actinomycin D concentration, incurred reanalysis, incurred sample reanalysis table; mouse # 6, sampling 6 h
*1 amine or outer side, *2 acyl side, *3 side chain or, on linkers, in order; H or OH if unused. Where a SMILES comes first, the peptide text is derived from it. Bridges are numbered along the chain shown (N, C = ends). Roman numbers before positions name the chains, in order. [ ]: non-standard residue; d: D form. Actinocin(9to1) = Cc1c2oc3c(C)ccc(C(=O)[*:1])c3nc-2c(C(=O)[*:2])c(N)c1=O; NMeV = CN[C@H](C(=O)O)C(C)C; Sar = CNCC(=O)O
measured_attribute: level at 6 h (ng/mL)
Your answer is read as ng/mL, so omit the unit and give the number.

For record Cc1c2oc3c(C)ccc(C(=O)N[C@@H]4C(=O)N[C@H](C(C)C)C(=O)N5CCC[C@H]5C(=O)N(C)CC(=O)N(C)[C@@H](C(C)C)C(=O)O[C@@H]4C)c3nc-2c(C(=O)N[C@@H]2C(=O)N[C@H](C(C)C)C(=O)N3CCC[C@H]3C(=O)N(C)CC(=O)N(C)[C@@H](C(C)C)C(=O)O[C@@H]2C)c(N)c1=O [actinomycin D, Actinomycin D] (I: T[dV]P[Sar][NMeV] / II: T[dV]P[Sar][NMeV]; ester I:1-I:C, II:1-II:C; linker I:N-II:N via Actinocin(9to1)) the listed level at 6 h is 1.17

---

# test: in vivo
# condition_notes: female, NSG, mouse, plasma, iv, 0.5 mg/kg
*1 amine or outer side, *2 acyl side, *3 side chain or, on linkers, in order; H or OH if unused. Where a SMILES comes first, the peptide text is derived from it. Bridges are numbered along the chain shown (N, C = ends). Roman numbers before positions name the chains, in order. [ ]: non-standard residue; d: D form. Actinocin(9to1) = Cc1c2oc3c(C)ccc(C(=O)[*:1])c3nc-2c(C(=O)[*:2])c(N)c1=O; NMeV = CN[C@H](C(=O)O)C(C)C; Sar = CNCC(=O)O
measured_attribute: half-life (h)
Your answer is read as h, so omit the unit and give the number.

For record Cc1c2oc3c(C)ccc(C(=O)N[C@@H]4C(=O)N[C@H](C(C)C)C(=O)N5CCC[C@H]5C(=O)N(C)CC(=O)N(C)[C@@H](C(C)C)C(=O)O[C@@H]4C)c3nc-2c(C(=O)N[C@@H]2C(=O)N[C@H](C(C)C)C(=O)N3CCC[C@H]3C(=O)N(C)CC(=O)N(C)[C@@H](C(C)C)C(=O)O[C@@H]2C)c(N)c1=O [actinomycin D, Actinomycin D] (I: T[dV]P[Sar][NMeV] / II: T[dV]P[Sar][NMeV]; ester I:1-I:C, II:1-II:C; linker I:N-II:N via Actinocin(9to1)) the listed half-life is 6.04

---

# test: Plasma and brain tissue concentrations after intravenous bolus injection (CNS disposition)
# Format: in vivo, mice
# condition_notes: female, NSG (NOD.Cg-Prkdc^scid Il2rg^tm1Wjl/SzJ), mouse, plasma, iv; mice, 0.5 mg/kg i.v., 2 h after administration, UPLC-MS/MS; mean of 3 mice; read-out: Plasma Actinomycin D
*1 amine or outer side, *2 acyl side, *3 side chain or, on linkers, in order; H or OH if unused. Where a SMILES comes first, the peptide text is derived from it. Bridges are numbered along the chain shown (N, C = ends). Roman numbers before positions name the chains, in order. [ ]: non-standard residue; d: D form. Actinocin(9to1) = Cc1c2oc3c(C)ccc(C(=O)[*:1])c3nc-2c(C(=O)[*:2])c(N)c1=O; NMeV = CN[C@H](C(=O)O)C(C)C; Sar = CNCC(=O)O
measured_attribute: level at 2 h (ng/mL)
Your answer is read as ng/mL, so omit the unit and give the number.

For record Cc1c2oc3c(C)ccc(C(=O)N[C@@H]4C(=O)N[C@H](C(C)C)C(=O)N5CCC[C@H]5C(=O)N(C)CC(=O)N(C)[C@@H](C(C)C)C(=O)O[C@@H]4C)c3nc-2c(C(=O)N[C@@H]2C(=O)N[C@H](C(C)C)C(=O)N3CCC[C@H]3C(=O)N(C)CC(=O)N(C)[C@@H](C(C)C)C(=O)O[C@@H]2C)c(N)c1=O [actinomycin D, Actinomycin D] (I: T[dV]P[Sar][NMeV] / II: T[dV]P[Sar][NMeV]; ester I:1-I:C, II:1-II:C; linker I:N-II:N via Actinocin(9to1)) the listed level at 2 h is 22.7

The values you see were collected from paper PMC8466300.
